Consider compounds characterized by their IC50 with WDR5 (Homo sapiens).

Reference set, count: 3
| Compound | Assay target | IC50 |
| --- | --- | --- |
| CNc1nccn1Cc1cc(CN2CC(OC)C2)c2c(c1)C(=O)N([C@@H](C)c1cc(OC)c(F)cn1)CC2 | WDR5 (Homo sapiens) | 10 to 1000 nM |
| CNc1nccn1Cc1cc(CN(C)CC(F)(F)F)c2c(c1)C(=O)N([C@@H](C)c1cc(OC)c(F)cn1)CC2 | WDR5 (Homo sapiens) | 10 to 1000 nM |
| CCOc1cc([C@H](C)N2CCc3c(CN(C)C4CC4)cc(Cn4ccnc4NC)cc3C2=O)ncc1F | WDR5 (Homo sapiens) | 10 to 1000 nM |

Give WDR5 (Homo sapiens) IC50 for CCOc1cc(C(C)N2CCc3c(Br)cc(Cn4ccnc4NC)cc3C2=O)ncc1C#N (stereo not shown) 10 to 1000 nM

Another compound to look at: CNc1nccn1Cc1cc(-c2cc(CO)cnc2Cl)c2ccn(Cc3cccc(OC(F)F)c3)c(=O)c2c1 < 10 nM

Then what about the compound CCOc1cc(CN2CCc3c(cc(Cn4ccnc4C)cc3-n3nc(C)nc3C(F)F)C2=O)ncc1C#N ? < 10 nM

And then CCOc1cc([C@H](C)N2CCc3c(cc(CCN(C)CC)cc3-c3cn(C)nc3C)C2=O)ncc1F , what is it? 10 to 1000 nM

---

pIC50: −log10 of the molar value.
Below are pIC50 values measured for WDR5 (Homo sapiens).

Illustrative cases are given below, each with its answer.
| Compound | Assay target | pIC50 |
| --- | --- | --- |
| CNc1nccn1Cc1cc2c(c(-c3cc(CO)cnc3Cl)c1)CCN(Cc1ccc(F)c(F)c1)C2=O [Example 70] | WDR5 (Homo sapiens) | 6.00 to 8.00 |
| CCOc1cc(C(C)N2CCc3c(cc(CCN(C)CC)cc3-c3cc4[nH]cnc4nc3C)C2=O)ncc1C#N (stereo not shown) [Example 206] | WDR5 (Homo sapiens) | 6.00 to 8.00 |
| CNc1nccn1Cc1cc2c(c(-c3cc(CO)cnc3Cl)c1)CCN(Cc1ccc(F)c(OC(F)F)c1)C2=O [Example 74] | WDR5 (Homo sapiens) | 6.00 to 8.00 |

Tell me the measured pIC50 of CCOc1cc([C@H](C)N2CCc3c(cc(CCN(C)CC)cc3-c3cn(C)c(=O)cc3C(F)F)C2=O)ncc1C#N [Example 149] , please. 6.00 to 8.00

---

IC50 values recorded for WDR5 (Homo sapiens)

Consider the following illustrative entries.
| Compound | Result |
| --- | --- |
| CCOc1cc(C(C)N2CCc3c(cc(CCN(C)CC)cc3-c3cc(F)ncc3C)C2=O)ncc1C#N (stereo not shown) | 10 to 1000 nM |
| CCOc1cc([C@H](C)N2CCc3c(cc(Cn4ccnc4NC)cc3N3CCCC3)C2=O)ncc1F (single isomer, unassigned) | < 10 nM |
| CCOc1cc(CN2CCc3c(cc(Cn4ccnc4NC)cc3C3CC3)C2=O)nn1C | 10 to 1000 nM |
| CCOc1cc([C@H](C)N2CCc3c(CN4CCOCC4)cc(Cn4ccnc4NC)cc3C2=O)ncc1F | 10 to 1000 nM |
| CCOc1cc([C@H](C)N2CCc3c(cc(CCN(C)CC)cc3-c3cc(CO)cnc3Cl)C2=O)ncc1F | < 10 nM |

Would you kindly share the measured IC50 for CNc1nccn1Cc1cc2c(c(-c3cc([C@@H](C)O)cnc3Cl)c1)CCN(Cc1ccc(F)c(OC)c1)C2=O (single isomer, unassigned) ? < 10 nM

Then what about the compound CCOc1cc([C@H](C)N2CCc3c(CN4CC(F)(F)C4)cc(Cn4ccnc4NC)cc3C2=O)ncc1C#N ? 10 to 1000 nM

---

What follows is a collection of IC50 values obtained with UniProt P61964.

Value lookup for IC50; key = CCOc1cc([C@H](C)N2CCc3c(CN(C)C)cc(Cn4ccnc4C)cc3C2=O)ncc1C#N [Example 295] 10 to 1000 nM

Also check CCOc1cc([C@H](C)N2CCc3c(cc(CCN(C)CC)cc3-c3cc4ocnc4nc3C)C2=O)ncc1C#N [Example 181] < 10 nM

Please do the same for CCOc1cc([C@@H](C)N2CCc3c(cc(CCN(C)CC)cc3-c3cc(C)cnc3C)C2=O)ncc1C#N [Example 156] as well. 10 to 1000 nM

Another molecule: CNc1nccn1Cc1cc(CN2CCOCC2)c2c(c1)C(=O)N([C@@H](C)c1cc(OC)c(F)cn1)CC2 (single isomer, unassigned) [Example 7] < 10 nM

Can you handle CCOc1cc([C@H](C)N2CCc3c(cc(CCN(C)CC)cc3-c3ccn(C)c(=O)c3C(F)(F)F)C2=O)ncc1C#N [Example 195] next? 10 to 1000 nM

Try this molecule too: CCOc1cc([C@H](C)N2CCc3c(cc(Cn4ccnc4C)cc3-c3c[nH]nc3C)C2=O)ncc1C#N [Example 302] < 10 nM

Cool, now CCOc1cc([C@H](C)N2CCc3c(cc(CCN4C[C@@H](O)[C@H]4C)cc3-c3cn(C)nc3C(F)F)C2=O)ncc1C#N [Example 213] < 10 nM

Same for CCOc1cc([C@H](C)N2CCc3c(cc(CCN(C)C4CC4)cc3-c3ccc(F)nc3C)C2=O)ncc1C#N [Example 229] < 10 nM

Ok, now CNc1nccn1Cc1cc2c(c(-c3cn(C)nc3C(F)F)c1)CCN(Cc1ccc(F)c(OC)c1)C2=O [Example 66] 10 to 1000 nM

Item: CCOc1cc([C@H](C)N2CCc3c(cc(CCN(C)C4COC4)cc3-c3ccc(F)nc3C)C2=O)ncc1C#N [Example 253] 10 to 1000 nM

Now consider CCOc1cc(C(C)N2CCc3c(cc(CCN(C)CCF)cc3-c3cn(C)nc3C)C2=O)ncc1C#N (centres unmarked) [Example 241] . 10 to 1000 nM

Next record, please: CCOc1cc([C@H](C)N2CCc3c(cc(CCN(C)CC)cc3-c3c[nH]c(=O)cc3C(F)(F)F)C2=O)ncc1C#N [Example 176] < 10 nM

Same again, this time with CCOc1cc([C@H](C)N2CCc3c(cc(CCN(C)CC)cc3-c3cn(C(F)F)c(=O)cc3Cl)C2=O)ncc1C#N [Example 174] < 10 nM

Param item: CCOc1cc(C(C)N2CCc3c(cc(CCN(C)CCF)cc3-c3ccc(F)nc3C)C2=O)ncc1C#N (centres unmarked) [Example 236] < 10 nM

---

AC50 values by entry
target: wild type MLL1 four-member complex (MLL1-4C) (Homo sapiens, UniProt P61964); experiment: MLL1 LC-MS assay (SAH production); type: biochemical; conditions: read-out: (b) MLL LCMS Peptide Val.v.1 Qualified AC50

Here's what some known entries look like.
| Molecule | Result |
| --- | --- |
| CCOc1cc(C(C)N2CCc3c(cc(CCN(C)CC)cc3-c3ccc(Cl)nc3C)C2=O)ncc1C#N (stereo not shown) | 0.01 to 1 µM |
| CNc1nccn1Cc1cc(CN2CC(F)(F)C2)c2c(c1)C(=O)N(Cc1cc(OC)c(F)cn1)CC2 | 0.01 to 1 µM |

Item under review: CCOc1cc([C@H](C)N2CCc3c(cc(CCN(C)CC)cc3-c3cc(N)cnc3C(F)(F)F)C2=O)ncc1C#N . Reported AC50? 0.01 to 1 µM

Can you handle CNc1nccn1Cc1cc(-c2cc(CO)cnc2Cl)c2ccn(Cc3ccc(OC)c(F)c3)c(=O)c2c1 next? 0.01 to 1 µM

Would you mind doing CCOc1cc([C@H](C)N2CCc3c(cc(CCN4CC[C@@H](O)[C@H]4C)cc3-c3ccc(F)nc3C)C2=O)ncc1C#N as well? 0.01 to 1 µM

Subsequent entry: CNc1nccn1Cc1cc(CN(C)C2COC2)c2c(c1)C(=O)N([C@@H](C)c1cc(OC)c(F)cn1)CC2 0.01 to 1 µM

Query CCOc1cc([C@H](C)N2CCc3c(CN(C)C)cc(Cn4ccnc4NC)cc3C2=O)ncc1F (single isomer, unassigned) next 0.01 to 1 µM

---

pIC50 values by entry
target: UniProt P61964
pIC50: −log10 of the molar value.

Which pIC50 value belongs to CCOc1cc(C(C)N2CCc3c(cc(CCN(C)CC)cc3C(O)C(F)(F)F)C2=O)ncc1F (stereo not drawn) ? 6.00 to 8.00

Again, but for CNc1nccn1Cc1cc(CN(C)C2COC2)c2c(c1)C(=O)N([C@@H](C)c1cc(OC)c(F)cn1)CC2 6.00 to 8.00

Field entry: CNc1nccn1Cc1cc(CN2CC[C@H](F)C2)c2c(c1)C(=O)N([C@@H](C)c1cc(OC)c(F)cn1)CC2 6.00 to 8.00

And then CCOc1cc(CN2CCc3c(cc(CCN(C)CC)cc3-c3cn(C)c(=O)cc3C(F)(F)F)C2=O)ncc1C#N , what is it? 6.00 to 8.00

Where do the numbers come from? From patent US20220289732A1.
